System: CEM cells HIV-1 protection, formazan growth assay
Method summary: NCI AIDS Antiviral Assay
Experimental setup: measured here: growth of uninfected CEM cells
Recorded IC50 for the following compounds
Recorded metric: IC50 (µM)

>>> measurement("CCc1c([N+](=O)[O-])cc2c(c1[N+](=O)[O-])C(C)(C)CCC2C (stereo not given)")
14.5
>>> measurement("CCOC(=O)C1=NN(c2ccccc2)C(=O)/C1=C\\N1C(=O)/C(=C/c2cccc(OC)c2O)SC1=S")
53.7

* * *

Tested on: CEM cells HIV-1 protection, formazan growth assay
Method summary: NCI AIDS Antiviral Assay;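 active = compounds giving half or more protection of infected cells from virus-caused growth loss, again on retest; inactive = the rest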
Labels: YES (active), NO (inactive)

>>> cat("Cc1ccc(Nc2nc(NS(=O)(=O)c3cc(C)c(Cl)cc3S)n(C)n2)cc1")
"NO"
>>> cat("Cc1nccc2c(C(=O)O)c(C(=O)O)[nH]c12")
"NO"
>>> cat("Cc1nnc(NC(=O)c2cc(=O)c3ccccc3o2)s1")
"NO"
>>> cat("O=C1/C(=C/c2ccc(Cl)cc2)COc2ccc(Br)cc21")
"NO"
>>> cat("CC[P+](C#Cc1ccccc1)(c1ccccc1)c1ccccc1")
"NO"
>>> cat("Clc1cc2nc3[nH]c4ccccc4c3nc2cc1Cl")
"NO"
>>> cat("Cn1c(=Nc2ccccc2[N+](=O)[O-])sc2ccccc21")
"NO"
>>> cat("C[C@H]1CC[C@H]([C@@H](C)[C@H]2[C@@H](O)C[C@H]3[C@@H]4CC[C@H]5C[C@@H](O)CC[C@]5(C)[C@H]4CC[C@]23C)NC1")
"NO"
>>> cat("Cc1nc(NCc2ccccc2)c2cc[nH]c2n1")
"NO"
>>> cat("c1ccc2c(c1)SCC1COCOC21 (stereo unspecified)")
"NO"
>>> cat("S=c1[nH]n2c(CCCCCCCCc3nnc4sc(=S)[nH]n34)nnc2s1")
"YES"
